# TEST_SUMMARY: chemical genetic growth profiling, strain panel (AID 1159580);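 further: tested at 20 µM; growth read once vehicle control cultures reached saturation at 30 °C; 1 = growth at the plate median or of vehicle wells; lower values mean less growth of the strain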
# PARTICULARS: S. cerevisiae deletion strains, growth OD, locus YMR263W, strain SAP30, active compounds read low
In all, about 5,500 compounds went through this assay and about 2,000 (36%) were called active. Another 18% or so got no clear call; they are omitted. Some of the results follow.
Entries and their normalized growth values follow.

Inquiry: What value of normalized growth has been reported for the following compound? CC(N)(Cc1ccc(O)c(O)c1)C(=O)O (centres undefined)
Reply text: 1.01 (inactive)

Inquiry: What value of normalized growth has been reported for the following compound? COc1ccccc1NC(=O)Nc1nc(-c2cccnc2)nc2ccccc12
Reply text: 1.01 (inactive)

Inquiry: What value of normalized growth has been reported for the following compound? CCn1cc(C(=O)O)c(=O)c2cnc(N3CCNCC3)nc21
Reply text: 1.01 (inactive)

====

# TEST_SUMMARY: chemical genetic growth profiling, strain panel (AID 1159580);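 further: tested at 20 µM; growth read once vehicle control cultures reached saturation at 30 °C; 1 = growth at the plate median or of vehicle wells; lower values mean less growth of the strain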
# PARTICULARS: S. cerevisiae deletion strains, growth OD, locus YLR342W, strain FKS1, active compounds read low
In all, about 5,500 compounds went through this assay and about 2,000 (36%) were called active. Another 18% or so got no clear call; they are omitted. This is one part of the list.
Entries and their normalized growth values follow.
Answer with a number only.

| COMPOUND | READOUT_LABEL | TEST_VALUE |
| --- | --- | --- |
| COP(=S)(OC)Oc1ccc(SC)c(C)c1 | normalized growth | 0.997 |

Inquiry: What value of normalized growth has been reported for the following compound? CC[C@@H](C(=O)[C@@H](C)[C@@H](O)[C@H](C)[C@@H]1O[C@@H]([C@@H](CC)C(=O)O)CC[C@@H]1C)[C@H]1OC2(C=C[C@@H](O)[C@]3(CC[C@@](C)([C@H]4CC[C@](O)(CC)[C@H](C)O4)O3)O2)[C@H](C)C[C@@H]1C (stereo partly specified)
Reply text: 0.852

Inquiry: What value of normalized growth has been reported for the following compound? Nc1nccs1
Reply text: 0.975

Inquiry: What value of normalized growth has been reported for the following compound? CC1=C(/C=C/C(C)=C/C=C/C(C)=C\C(=O)O)C(C)(C)CCC1
Reply text: 0.953

Inquiry: What value of normalized growth has been reported for the following compound? COc1ccc(CN(CCN(C)C)c2ncccn2)cc1
Reply text: 1.02

Inquiry: What value of normalized growth has been reported for the following compound? O=C1OCCN1/N=C\c1ccc([N+](=O)[O-])o1
Reply text: 1

====

# TEST_SUMMARY: chemical genetic growth profiling, strain panel (AID 1159580);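 further: tested at 20 µM; growth read once vehicle control cultures reached saturation at 30 °C; 1 = growth at the plate median or of vehicle wells; lower values mean less growth of the strain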
# PARTICULARS: S. cerevisiae deletion strains, growth OD, locus YMR078C, strain ctf18, active compounds read low
The whole screen tested about 5,500 compounds, of which about 2,000 (36%) were called active. Another 18% or so got no clear call; they are omitted. The list shows a part of the results.
Entries and their normalized growth values follow.
Answer with a number only.

// known answers, use as guide
| COMPOUND | normalized growth |
| --- | --- |
| CCOC(=O)c1ccc(N)cc1 | 0.998 |
| COc1cc2c(cc1O)CC1c3c(cc(O)c(OC)c3-2)CCN1C (stereo not given) | 1 |
| C=CC1=C(C)/C(=C/c2[nH]c(Cc3[nH]c(/C=C4\NC(=O)C(C)=C4C=C)c(C)c3CCC(=O)O)c(CCC(=O)O)c2C)NC1=O | 1.04 |
| O=C(O)CCCCCCCCCCCCC1C=CCC1 (stereo not given) | 1.01 |

Inquiry: What value of normalized growth has been reported for the following compound? CCOP(=S)(OCC)SCCSCC
Reply text: 0.978
